Assay: Antiproliferative assay (MTT colorimetric test, 72 h)
Format: cell-based
Conditions: human, n.a. = not active, read-out: A549, CC50
Classify: Satisfied when CC50 at 72 h is strictly less than 80 µM; Not satisfied when CC50 at 72 h is not.

{"columns": ["smi", "qualitativeLabel"],
 "data": [
  ["O=C1Nc2ccc([N+](=O)[O-])cc2C1=Cc1ccco1", "Not satisfied"],
  ["COc1ccc(C=C2C(=O)Nc3ccccc32)cc1", "Satisfied"],
  ["O=C1Nc2ccccc2C1=Cc1ccco1", "Not satisfied"],
  ["O=C1Nc2ccc(NC(=O)c3ccccc3)cc2C1=Cc1ccccn1", "Satisfied"],
  ["O=C1Nc2ccccc2C1=Cc1cccs1", "Not satisfied"],
  ["O=C1Nc2ccc(NC(=O)c3ccccc3)cc2C1=Cc1ccc(O)cc1", "Not satisfied"],
  ["CC(=O)Nc1ccc2c(c1)C(=Cc1cccc(O)c1)C(=O)N2", "Not satisfied"],
  ["COC(=O)Nc1ccc2c(c1)C(=Cc1ccc(O)cc1)C(=O)N2", "Satisfied"]
]}
